Consider the following compounds; for each one, report its pKi.
assayed target: GTPase KRas (Homo sapiens, UniProt P01116, G12C)
Sequence (P01116 whole entry G12C): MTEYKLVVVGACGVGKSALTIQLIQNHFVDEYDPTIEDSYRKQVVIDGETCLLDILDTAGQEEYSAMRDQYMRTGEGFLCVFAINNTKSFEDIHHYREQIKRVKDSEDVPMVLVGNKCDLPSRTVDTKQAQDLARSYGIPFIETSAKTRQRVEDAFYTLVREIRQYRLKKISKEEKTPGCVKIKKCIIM
assay: Binding affinity to GMP-stabilized FLAG-tagged KRAS G12C mutant (unknown origin) using desthiobiotin-GTP probe by alphascreen assay
FYI, pKi means -log10 of a concentration in mol per litre.

Query: # get_value(readout='pKi', item= Nc1nc2c(ncn2[C@@H]2O[C@H](COP(=O)(O)CP(=O)(O)OC3CCN(C(=O)CCl)C3)[C@@H](O)[C@H]2O)c(=O)[nH]1 (stereo partly drawn) )
Response: 6.04

Query: Quick one: pKi of "Nc1nc2c(ncn2[C@@H]2O[C@H](COP(=O)(O)CC(=O)OCCNC(=O)CCl)[C@@H](O)[C@H]2O)c(=O)[nH]1" ?
Response: 4.82

Query: If you can, please state the reported pKi value of Nc1nc2c(ncn2[C@@H]2O[C@H](COP(=O)(O)C(F)P(=O)(O)OCCNC(=O)CCl)[C@@H](O)[C@H]2O)c(=O)[nH]1 (mixture of isomers) .
Response: 5.10

---

Test system: GTPase KRas (Homo sapiens), P01116 [G12C]
assay: Binding affinity to GMP-stabilized FLAG-tagged KRAS G12C mutant (unknown origin) assessed as inactivation constant using desthiobiotin-GTP probe by alphascreen assay
Task for the reader: assign each of the following molecules its reported Kinact.
Hi, when you answer, please include the unit after the number. Thanks!

Query: Quick one: Kinact of "CC(C)(CNC(=O)CCl)COP(=O)(O)CP(=O)(O)OC[C@H]1O[C@@H](n2cnc3c(=O)[nH]c(N)nc32)[C@H](O)[C@@H]1O" ?
Response: 0.14 min⁻¹

Query: Any idea what its Kinact is? The molecule is "Nc1nc2c(ncn2[C@@H]2O[C@H](COP(=O)(O)CP(=O)(O)OCCCNC(=O)CCl)[C@@H](O)[C@H]2O)c(=O)[nH]1"
Response: 0.07 min⁻¹

Query: Would you kindly share the measured Kinact for "C=CC(=O)NCCOP(=O)(O)OP(=O)(O)OC[C@H]1O[C@@H](n2cnc3c(=O)[nH]c(N)nc32)[C@H](O)[C@@H]1O" ?
Response: 2.12 min⁻¹

---

System: GTPase KRas (Homo sapiens), P01116 [G12C]
assay: Binding affinity to recombinant GDP-loaded KRAS G12C mutant (unknown origin) assessed as half life at 115 uM by CPM-probe based fluorescence assay
Kindly state T1/2 for each of the entries shown.
Report the figure in h without appending any unit label.

Query: Return reported T1/2; argument: Nc1nc2c(ncn2[C@@H]2O[C@H](COP(=O)(O)CP(=O)(O)O[C@@H]3CC[C@H](NC(=O)CCl)C3)[C@@H](O)[C@H]2O)c(=O)[nH]1 (mixture of isomers)
Response: 42

Query: Entry "Nc1nc2c(ncn2[C@@H]2O[C@H](COC(=O)CP(=O)(O)OCCNC(=O)CCl)[C@@H](O)[C@H]2O)c(=O)[nH]1" : reported T1/2 = ?
Response: 47

Query: Look at this molecule and give its reported T1/2. "Nc1nc2c(ncn2[C@@H]2O[C@H](CNc3c(NCCCNC(=O)CCl)c(=O)c3=O)[C@@H](O)[C@H]2O)c(=O)[nH]1"
Response: 13

Query: Any idea what T1/2 was measured for "Nc1nc2c(ncn2[C@@H]2O[C@H](COP(=O)(O)CS(=O)(=O)NCCNC(=O)CCl)[C@@H](O)[C@H]2O)c(=O)[nH]1" ?
Response: 2.3

Query: Suppose we examine the molecule "Nc1nc2c(ncn2[C@@H]2O[C@H](COP(=O)(O)CP(=O)(O)OCCNC(=O)CCl)[C@@H](O)[C@H]2O)c(=O)[nH]1" ; what T1/2 value has been reported?
Response: 2.1

Query: Return reported T1/2; argument: "Nc1nc2c(ncn2[C@@H]2O[C@H](COP(=O)(O)C(F)(F)P(=O)(O)OCCCNC(=O)CCl)[C@@H](O)[C@H]2O)c(=O)[nH]1"
Response: 1.06

Query: Tell me the measured T1/2 of "Nc1nc2c(ncn2[C@@H]2O[C@H](COP(=O)(O)CP(=O)(O)OCCCNC(=O)CCl)[C@@H](O)[C@H]2O)c(=O)[nH]1" , please.
Response: 2.5

Query: Sample "COC(=O)/C=C/CCCOP(=O)(O)CP(=O)(O)OC[C@H]1O[C@@H](n2cnc3c(=O)[nH]c(N)nc32)[C@H](O)[C@@H]1O" — what was its T1/2?
Response: 120

Query: Query (molecule): Nc1nc2c(ncn2[C@@H]2O[C@H](COP(=O)(O)CP(=O)(O)OC3CCCN(C(=O)CCl)C3)[C@@H](O)[C@H]2O)c(=O)[nH]1 (mixture of isomers) ; field requested: T1/2
Response: 12

Query: Find the recorded T1/2 belonging to "Nc1nc2c(ncn2[C@@H]2O[C@H](COS(=O)(=O)NC(=O)OCCNC(=O)CCl)[C@@H](O)[C@H]2O)c(=O)[nH]1" and report it.
Response: 9.5

Query: Using the record for "Nc1nc2c(ncn2[C@@H]2O[C@H](COP(=O)(O)OP(=O)(O)OCCNC(=O)CCl)[C@@H](O)[C@H]2O)c(=O)[nH]1" , report its T1/2.
Response: 0.68

Query: Given the entry "Nc1nc2c(ncn2[C@@H]2O[C@H](COC(=O)CS(=O)(=O)NCCNC(=O)CCl)[C@@H](O)[C@H]2O)c(=O)[nH]1" , report its measured T1/2.
Response: 24

Query: T1/2 for Nc1nc2c(ncn2[C@@H]2O[C@H](COP(=O)(O)C(F)P(=O)(O)OCCNC(=O)CCl)[C@@H](O)[C@H]2O)c(=O)[nH]1 (mixture of isomers) ?
Response: 6.6

---

Test system: GTPase KRas (Homo sapiens), P01116 [G12C]
assay: Binding affinity to GMP-stabilized FLAG-tagged KRAS G12C mutant (unknown origin) assessed as ratio of Kinact to Ki using desthiobiotin-GTP probe by alphascreen assay
So I've got a bunch of molecules here, and I need their Ratio values.
Field: value (include unit after the number)

Query: Provide the documented Ratio with GTPase KRas (Homo sapiens), P01116 [G12C] as the system for "Nc1nc2c(ncn2[C@@H]2O[C@H](COP(=O)(O)C(F)(F)P(=O)(O)OCCCNC(=O)CCl)[C@@H](O)[C@H]2O)c(=O)[nH]1"
Response: 0.8 min⁻¹ µM⁻¹

Query: Lab note: need Ratio for Nc1nc2c(ncn2[C@@H]2O[C@H](COP(=O)(O)C(F)P(=O)(O)OCCNC(=O)CCl)[C@@H](O)[C@H]2O)c(=O)[nH]1 (mixture of isomers) on GTPase KRas (Homo sapiens), P01116 [G12C], anyone have it?
Response: 0.03 min⁻¹ µM⁻¹

Query: Lab note: need Ratio with GTPase KRas (Homo sapiens), P01116 [G12C] for entry "Nc1nc2c(ncn2[C@@H]2O[C@H](COP(=O)(O)CC(=O)OCCNC(=O)CCl)[C@@H](O)[C@H]2O)c(=O)[nH]1" , please look it up.
Response: 0.003 min⁻¹ µM⁻¹

---

assayed target: GTPase KRas (Homo sapiens, UniProt P01116, G12C)
assay: Binding affinity to GMP-stabilized FLAG-tagged KRAS G12C mutant (unknown origin) using desthiobiotin-GTP probe by alphascreen assay
metric name: Ki (µM)
Provide only the numeric value, understood in µM.

Query: Recorded Ki of "Nc1nc2c(ncn2[C@@H]2O[C@H](COP(=O)(O)C(F)(F)P(=O)(O)OCCCNC(=O)CCl)[C@@H](O)[C@H]2O)c(=O)[nH]1" , please.
Response: 0.382

Query: Ki for "Nc1nc2c(ncn2[C@@H]2O[C@H](COP(=O)(O)CS(=O)(=O)NCCNC(=O)CCl)[C@@H](O)[C@H]2O)c(=O)[nH]1" ?
Response: 1.6

Query: Dear colleague, I am looking for the recorded Ki of the following molecule: Nc1nc2c(ncn2[C@@H]2O[C@H](COP(=O)(O)CP(=O)(O)O[C@@H]3CC[C@@H](NC(=O)CCl)C3)[C@@H](O)[C@H]2O)c(=O)[nH]1 (mixture of isomers)
Response: 36

Query: GET /values?readout=Ki&item= "C=CC(=O)NCCOP(=O)(O)OP(=O)(O)OC[C@H]1O[C@@H](n2cnc3c(=O)[nH]c(N)nc32)[C@H](O)[C@@H]1O"
Response: 0.28

Query: Field request: Ki | item: "Nc1nc2c(ncn2[C@@H]2O[C@H](COS(=O)(=O)NC(=O)OCCNC(=O)CCl)[C@@H](O)[C@H]2O)c(=O)[nH]1"
Response: 5

Query: Find the recorded Ki belonging to "Nc1nc2c(ncn2[C@@H]2O[C@H](COP(=O)(O)CP(=O)(O)OCCCNC(=O)CCl)[C@@H](O)[C@H]2O)c(=O)[nH]1" and report it.
Response: 0.374

Query: Requested read-out: Ki. Entry: Nc1nc2c(ncn2[C@@H]2O[C@H](COP(=O)(O)CP(=O)(O)OC3CCCN(C(=O)CCl)C3)[C@@H](O)[C@H]2O)c(=O)[nH]1 (mixture of isomers)
Response: 3.5

Query: I'd like to know its Ki. The molecule in question is "Nc1nc2c(ncn2[C@@H]2O[C@H](COP(=O)(O)CP(=O)(O)OCCNC(=O)CCl)[C@@H](O)[C@H]2O)c(=O)[nH]1"
Response: 2.7
